SYSTEM TESTED: hS1P1 receptors (Homo sapiens, UniProt P21453)
Sequence (P21453 whole entry): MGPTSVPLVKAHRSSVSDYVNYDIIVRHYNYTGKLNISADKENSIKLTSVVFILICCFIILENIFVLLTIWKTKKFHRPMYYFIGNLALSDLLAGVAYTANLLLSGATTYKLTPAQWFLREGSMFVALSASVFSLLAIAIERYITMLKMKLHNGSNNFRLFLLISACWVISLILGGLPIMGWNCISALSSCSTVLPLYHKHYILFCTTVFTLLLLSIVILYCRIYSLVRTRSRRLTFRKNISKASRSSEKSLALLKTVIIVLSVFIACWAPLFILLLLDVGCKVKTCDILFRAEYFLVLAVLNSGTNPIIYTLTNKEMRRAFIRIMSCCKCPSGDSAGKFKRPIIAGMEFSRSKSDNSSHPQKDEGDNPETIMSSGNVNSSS
TEST: Intracellular Ca2+ mobilization in CHO cells expressing human S1P receptors (hS1P1)
RUN CONDITIONS: read-out: S1P1 (EC50 class, intracellular Ca2+ mobilization)
Structures can show the parent of a compound that is named as a salt.
EC50 by entry:
ATTRIBUTE MEASURED: EC50

>  <COMPOUND>
NC(CO)(CCCc1ccc(Sc2cccc(O)c2)cc1Cl)COP(=O)(O)O (stereo not drawn)

>  <SYSTEM TESTED>
hS1P1 receptors (Homo sapiens, UniProt P21453)

>  <ATTRIBUTE MEASURED>
EC50

>  <ASSAY VALUE>
100 to 1000 nM

$$$$
>  <COMPOUND>
CC(N)(CCc1ccc(Sc2cccc(OCc3ccccc3)c2)cc1Cl)COP(=O)(O)O (single isomer, unassigned; (+)) [Example 249]

>  <SYSTEM TESTED>
hS1P1 receptors (Homo sapiens, UniProt P21453)

>  <ATTRIBUTE MEASURED>
EC50

>  <ASSAY VALUE>
10 to 100 nM

$$$$
>  <COMPOUND>
CC(N)(CCCc1ccc(Sc2cccc(OCc3ccccc3)c2)cc1Cl)COP(=O)(O)O (single isomer, unassigned; (+)) [Example 239]

>  <SYSTEM TESTED>
hS1P1 receptors (Homo sapiens, UniProt P21453)

>  <ATTRIBUTE MEASURED>
EC50

>  <ASSAY VALUE>
< 10 nM

$$$$
>  <COMPOUND>
NC(CO)(CCCc1ccc(Sc2cccc(OCc3ccccc3)c2)cc1Cl)CCP(=O)(O)O (stereo not drawn)

>  <SYSTEM TESTED>
hS1P1 receptors (Homo sapiens, UniProt P21453)

>  <ATTRIBUTE MEASURED>
EC50

>  <ASSAY VALUE>
< 10 nM

$$$$
>  <COMPOUND>
NC(CO)(CCc1ccc(Sc2cccc(OCc3ccccc3)c2)cc1Cl)COP(=O)(O)O (stereo not drawn)

>  <SYSTEM TESTED>
hS1P1 receptors (Homo sapiens, UniProt P21453)

>  <ATTRIBUTE MEASURED>
EC50

>  <ASSAY VALUE>
< 10 nM

$$$$
>  <COMPOUND>
NC(/C=C(/F)P(=O)(O)O)CCc1ccc(Sc2cccc(OCc3ccccc3)c2)cc1Cl (stereo not drawn)

>  <SYSTEM TESTED>
hS1P1 receptors (Homo sapiens, UniProt P21453)

>  <ATTRIBUTE MEASURED>
EC50

>  <ASSAY VALUE>
100 to 1000 nM

$$$$
>  <COMPOUND>
Cl.NC(CO)(CCCc1ccc(Sc2cccc(OCc3ccccc3)c2)cc1Cl)CP(=O)(O)O (stereo not drawn) [Example 286, hydrochloride]

>  <SYSTEM TESTED>
hS1P1 receptors (Homo sapiens, UniProt P21453)

>  <ATTRIBUTE MEASURED>
EC50

>  <ASSAY VALUE>
10 to 100 nM

$$$$
>  <COMPOUND>
CC(N)(CCCc1ccc(Sc2cccc(OCc3ccccc3)c2)cc1Cl)CCP(=O)(O)O (stereo not drawn)

>  <SYSTEM TESTED>
hS1P1 receptors (Homo sapiens, UniProt P21453)

>  <ATTRIBUTE MEASURED>
EC50

>  <ASSAY VALUE>
10 to 100 nM

$$$$
>  <COMPOUND>
NC(/C=C/P(=O)(O)O)(CO)CCCc1ccc(Sc2cccc(OCc3ccccc3)c2)cc1Cl (stereo not drawn)

>  <SYSTEM TESTED>
hS1P1 receptors (Homo sapiens, UniProt P21453)

>  <ATTRIBUTE MEASURED>
EC50

>  <ASSAY VALUE>
< 10 nM

$$$$
>  <COMPOUND>
CC(N)(/C=C/P(=O)(O)O)CCCc1ccc(Sc2cccc(OCc3ccccc3)c2)cc1Cl (racemic)

>  <SYSTEM TESTED>
hS1P1 receptors (Homo sapiens, UniProt P21453)

>  <ATTRIBUTE MEASURED>
EC50

>  <ASSAY VALUE>
100 to 1000 nM

$$$$
>  <COMPOUND>
NC(CCCc1ccc(Sc2cccc(OCc3ccccc3)c2)cc1Cl)CCP(=O)(O)O (stereo not drawn)

>  <SYSTEM TESTED>
hS1P1 receptors (Homo sapiens, UniProt P21453)

>  <ATTRIBUTE MEASURED>
EC50

>  <ASSAY VALUE>
100 to 1000 nM

$$$$
>  <COMPOUND>
CC(N)(CCCc1ccc(Sc2cccc(OCc3ccccc3)c2)cc1Cl)COP(=O)(O)O (single isomer, unassigned; (-)) [Example 240]

>  <SYSTEM TESTED>
hS1P1 receptors (Homo sapiens, UniProt P21453)

>  <ATTRIBUTE MEASURED>
EC50

>  <ASSAY VALUE>
10 to 100 nM

$$$$
>  <COMPOUND>
NC(CO)(CCCc1ccc(Sc2cccc(OCc3ccccc3)c2)cc1Cl)COP(=O)(O)O (stereo not drawn)

>  <SYSTEM TESTED>
hS1P1 receptors (Homo sapiens, UniProt P21453)

>  <ATTRIBUTE MEASURED>
EC50

>  <ASSAY VALUE>
10 to 100 nM

$$$$
>  <COMPOUND>
CCCC(N)(CCCc1ccc(Sc2cccc(OCc3ccccc3)c2)cc1Cl)CCP(=O)(O)O (stereo not drawn)

>  <SYSTEM TESTED>
hS1P1 receptors (Homo sapiens, UniProt P21453)

>  <ATTRIBUTE MEASURED>
EC50

>  <ASSAY VALUE>
10 to 100 nM

$$$$
>  <COMPOUND>
NC(/C=C/P(=O)(O)O)(CO)CCc1ccc(Sc2cccc(OCc3ccccc3)c2)cc1Cl (stereo not drawn)

>  <SYSTEM TESTED>
hS1P1 receptors (Homo sapiens, UniProt P21453)

>  <ATTRIBUTE MEASURED>
EC50

>  <ASSAY VALUE>
< 10 nM

$$$$
>  <COMPOUND>
NC(/C=C/P(=O)(O)O)(CO)CCCCc1ccc(Sc2cccc(OCc3ccccc3)c2)cc1Cl (stereo not drawn)

>  <SYSTEM TESTED>
hS1P1 receptors (Homo sapiens, UniProt P21453)

>  <ATTRIBUTE MEASURED>
EC50

>  <ASSAY VALUE>
< 10 nM

$$$$
>  <COMPOUND>
NC(/C=C(\F)P(=O)(O)O)CCc1ccc(Sc2cccc(OCc3ccccc3)c2)cc1Cl (stereo not drawn)

>  <SYSTEM TESTED>
hS1P1 receptors (Homo sapiens, UniProt P21453)

>  <ATTRIBUTE MEASURED>
EC50

>  <ASSAY VALUE>
10 to 100 nM

$$$$
>  <COMPOUND>
CCCC(N)(/C=C/P(=O)(O)O)CCCc1ccc(Sc2cccc(OCc3ccccc3)c2)cc1Cl (stereo not drawn)

>  <SYSTEM TESTED>
hS1P1 receptors (Homo sapiens, UniProt P21453)

>  <ATTRIBUTE MEASURED>
EC50

>  <ASSAY VALUE>
10 to 100 nM

$$$$
>  <COMPOUND>
CC(N)(CCc1ccc(Sc2cccc(OCc3ccccc3)c2)cc1Cl)COP(=O)(O)O (single isomer, unassigned; (-)) [Example 250]

>  <SYSTEM TESTED>
hS1P1 receptors (Homo sapiens, UniProt P21453)

>  <ATTRIBUTE MEASURED>
EC50

>  <ASSAY VALUE>
100 to 1000 nM

$$$$
>  <COMPOUND>
NC(CO)(CCCc1ccc(Oc2cccc(C(F)(F)F)c2)cc1Cl)CCP(=O)(O)O (stereo not drawn)

>  <SYSTEM TESTED>
hS1P1 receptors (Homo sapiens, UniProt P21453)

>  <ATTRIBUTE MEASURED>
EC50

>  <ASSAY VALUE>
10 to 100 nM

$$$$
>  <COMPOUND>
NC(CO)(CCCc1ccc(Sc2cccc(C(F)(F)F)c2)cc1Cl)COP(=O)(O)O (stereo not drawn)

>  <SYSTEM TESTED>
hS1P1 receptors (Homo sapiens, UniProt P21453)

>  <ATTRIBUTE MEASURED>
EC50

>  <ASSAY VALUE>
10 to 100 nM

$$$$
>  <COMPOUND>
CCCC(N)(/C=C/P(=O)(OC)OC)CCCc1ccc(Sc2cccc(OCc3ccccc3)c2)cc1Cl (stereo not drawn) [Example 280, hydrochloride]

>  <SYSTEM TESTED>
hS1P1 receptors (Homo sapiens, UniProt P21453)

>  <ATTRIBUTE MEASURED>
EC50

>  <ASSAY VALUE>
100 to 1000 nM

$$$$
>  <COMPOUND>
NC(CO)(CCCc1ccc(Oc2cccc(C(F)(F)F)c2)cc1Cl)COP(=O)(O)O (stereo not drawn)

>  <SYSTEM TESTED>
hS1P1 receptors (Homo sapiens, UniProt P21453)

>  <ATTRIBUTE MEASURED>
EC50

>  <ASSAY VALUE>
10 to 100 nM

$$$$
>  <COMPOUND>
NC(/C=C/P(=O)(O)O)CCCc1ccc(Sc2cccc(OCc3ccccc3)c2)cc1Cl (stereo not drawn)

>  <SYSTEM TESTED>
hS1P1 receptors (Homo sapiens, UniProt P21453)

>  <ATTRIBUTE MEASURED>
EC50

>  <ASSAY VALUE>
100 to 1000 nM

$$$$
>  <COMPOUND>
NC(CO)(CCc1ccc(Sc2cccc(OCc3ccccc3)c2)cc1Cl)CCP(=O)(O)O (stereo not drawn)

>  <SYSTEM TESTED>
hS1P1 receptors (Homo sapiens, UniProt P21453)

>  <ATTRIBUTE MEASURED>
EC50

>  <ASSAY VALUE>
10 to 100 nM

$$$$
>  <COMPOUND>
NC(CO)(CCCc1ccc(Sc2cccc(OCc3ccccc3)c2)cc1Cl)C(O)C(F)(F)P(=O)(O)O (stereo not drawn)

>  <SYSTEM TESTED>
hS1P1 receptors (Homo sapiens, UniProt P21453)

>  <ATTRIBUTE MEASURED>
EC50

>  <ASSAY VALUE>
100 to 1000 nM

$$$$
>  <COMPOUND>
NC(CO)(CCc1ccc(Sc2ccc(OCc3ccccc3)cc2)cc1Cl)CCP(=O)(O)O (stereo not drawn)

>  <SYSTEM TESTED>
hS1P1 receptors (Homo sapiens, UniProt P21453)

>  <ATTRIBUTE MEASURED>
EC50

>  <ASSAY VALUE>
100 to 1000 nM

$$$$
